Measured pIC50 on F1F0-ATPase (Bos taurus, UniProt P13621) follows.
pIC50: −log10 of the molar value.

// worked examples, pIC50 included
# lookup: F1F0-ATPase (Bos taurus, UniProt P13621) pIC50, key = Cc1cc(C(=O)/N=C(\Nc2ccc(C(F)(F)F)nc2)Nc2cc(F)cc(Cl)c2)on1 > 5.30

Give pIC50; test system F1F0-ATPase (Bos taurus, UniProt P13621); molecule COC[C@H](C)N/C(=N/C(=O)c1cnoc1C)Nc1cc(-c2cc(F)cc(F)c2)[nH]n1 4.80 to 5.30

Please tell me the measured pIC50 for CCOC(=O)NC1CCC(N/C(=N\C(=O)c2cc(C)oc2C(F)(F)F)Nc2cc(Cl)ccc2OC)CC1 (stereo not drawn) ; system: F1F0-ATPase (Bos taurus, UniProt P13621). > 5.30

Output reported pIC50 of the molecule Cc1cc(C(=O)/N=C(/Nc2cc(F)cc(Cl)c2)Nc2cc(C(F)(F)F)n[nH]2)on1 on F1F0-ATPase (Bos taurus, UniProt P13621). > 5.30

Find pIC50 for CC(C)CN/C(=N/C(=O)c1cn(C)nc1C(F)(F)F)Nc1cc(-c2ccc(O)c(F)c2)n[nH]1 on F1F0-ATPase (Bos taurus, UniProt P13621) and write it down. 4.80 to 5.30

Please report pIC50 with F1F0-ATPase (Bos taurus, UniProt P13621) for item CCOCC(C)N/C(=N/C(=O)c1nc(C)oc1C)Nc1cc(-c2ccc(F)cc2)n[nH]1 (stereo not drawn) . < 4.80

Continuing:
Param request: pIC50 | system F1F0-ATPase (Bos taurus, UniProt P13621) | item Cc1cc(C(=O)N=C(Nc2cc(-c3cc(F)cc(F)c3)n[nH]2)NC(C)C)n(C)n1 > 5.30

Fetch value of pIC50 on F1F0-ATPase (Bos taurus, UniProt P13621) for Cc1cc(C(=O)/N=C(\Nc2ccc(C(F)(F)F)nc2)Nc2cccc(Cl)c2)on1 . > 5.30

Print F1F0-ATPase (Bos taurus, UniProt P13621) pIC50 for CCCn1ccc(C(=O)/N=C(\Nc2cc(-c3ccc(F)cc3)n[nH]2)NC(C)(C)C)n1 . > 5.30

Enter pIC50 (test system F1F0-ATPase (Bos taurus, UniProt P13621)) for Cn1cc(C(=O)/N=C(/Nc2cc(F)cc(Cl)c2)Nc2cc(-c3cc(O)ccc3Cl)n[nH]2)c(C(F)(F)F)n1 > 5.30

Enter recorded pIC50 with F1F0-ATPase (Bos taurus, UniProt P13621) for Cn1cc(C(=O)N=C(Nc2cc(-c3ccc(O)c(F)c3)n[nH]2)Nc2cc(Cl)ccc2F)c(C(F)(F)F)n1 here. > 5.30

====

These records show IC50 for F1F0-ATPase (Bos taurus, UniProt P13621).

GET IC50 | system: F1F0-ATPase (Bos taurus, UniProt P13621) | item: Cn1cc(C(=O)/N=C(/NCC(C)(C)C)Nc2cc(-c3ccc(O)c(F)c3)[nH]n2)c(C(F)(F)F)n1 5 to 16 µM

Answer briefly: IC50 recorded on F1F0-ATPase (Bos taurus, UniProt P13621) for COc1ccc(-c2cc(N/C(=N\C(=O)c3cn(C)nc3C(F)(F)F)NC(C)(C)C)n[nH]2)cc1F 5 to 16 µM

Enter recorded IC50 with F1F0-ATPase (Bos taurus, UniProt P13621) for CCOC(=O)NC1CCC(N/C(=N\C(=O)c2cc(C)oc2C(F)(F)F)Nc2cc(OC)ccc2C)CC1 (stereo not drawn) here. < 5 µM

// output IC50; input Cn1cc(C(=O)/N=C(/Nc2cc(-c3ccc(O)cc3F)n[nH]2)Nc2ccccc2F)c(C(F)(F)F)n1 ; system F1F0-ATPase (Bos taurus, UniProt P13621) 5 to 16 µM

Print F1F0-ATPase (Bos taurus, UniProt P13621) IC50 for Cc1oncc1C(=O)N=C(Nc1cc(-c2ccc(F)cc2)n[nH]1)NC1CCCC1 . > 16 µM

Provide the reported IC50 (system: F1F0-ATPase (Bos taurus, UniProt P13621)) for CC(C)n1ccc(C(=O)/N=C(\Nc2cc(-c3ccc(F)cc3)n[nH]2)NC(C)(C)C)n1 < 5 µM

Give F1F0-ATPase (Bos taurus, UniProt P13621) IC50 for the following compound: CCC(C)N/C(=N/C(=O)c1cc(C)oc1C(F)(F)F)Nc1cc(-c2ccc(F)cc2)n[nH]1 (stereo not drawn) < 5 µM

# return IC50 of Cc1ccc(-c2cc(N/C(=N\C(=O)c3cnoc3C)NC3CCC3)[nH]n2)cc1F (system: F1F0-ATPase (Bos taurus, UniProt P13621)) < 5 µM

Give F1F0-ATPase (Bos taurus, UniProt P13621) IC50 for the following compound: CSc1cccc(N/C(=N\C(=O)c2cn(C)nc2C(F)(F)F)Nc2cc(-c3ccc(O)cc3F)n[nH]2)c1 5 to 16 µM

Specify IC50 for Cn1cc(C(=O)/N=C(/Nc2ccc(F)c(C#N)c2)Nc2cc(-c3ccc(O)c(F)c3)n[nH]2)c(C(F)(F)F)n1 , system F1F0-ATPase (Bos taurus, UniProt P13621). 5 to 16 µM

Provide F1F0-ATPase (Bos taurus, UniProt P13621) IC50 reading for CCOC(=O)NC1CCC(N/C(=N/C(=O)c2cn(C)nc2C(F)(F)F)NCc2ccc(Cl)c(F)c2)CC1 (stereo not drawn) . > 16 µM

Fill in: IC50 on F1F0-ATPase (Bos taurus, UniProt P13621), entry O=C(/N=C(\Nc1cc(C(F)(F)F)n[nH]1)NC1CCOCC1)c1ccc(Cl)s1 < 5 µM

State, for F1F0-ATPase (Bos taurus, UniProt P13621), measured IC50 of the compound listed here: Cc1ccc(-c2cc(N/C(=N\C(=O)c3cnoc3C)NC(C)(C)C)[nH]n2)cc1F < 5 µM

Look up and report measured IC50 (F1F0-ATPase (Bos taurus, UniProt P13621)) for the following compound: Cc1cc(N/C(=N\C(=O)c2cc(C)oc2C(F)(F)F)NC(C)C)n[nH]1 > 16 µM

Enter IC50 (test system F1F0-ATPase (Bos taurus, UniProt P13621)) for Cc1oncc1C(=O)/N=C(\Nc1cc(-c2ccc(Cl)cc2)n[nH]1)NC(C)(C)C < 5 µM

Reference source for all entries: patent US9221814B2
